The reported measurements were obtained from patent US20210246166A1.

TEST_TARGET: T1, Recombinant human MASP1 enzyme (fragment corresponding to amino acids 297-699, C-terminal His Tag) (human, UniProt P48740 297-699)
T1 sequence: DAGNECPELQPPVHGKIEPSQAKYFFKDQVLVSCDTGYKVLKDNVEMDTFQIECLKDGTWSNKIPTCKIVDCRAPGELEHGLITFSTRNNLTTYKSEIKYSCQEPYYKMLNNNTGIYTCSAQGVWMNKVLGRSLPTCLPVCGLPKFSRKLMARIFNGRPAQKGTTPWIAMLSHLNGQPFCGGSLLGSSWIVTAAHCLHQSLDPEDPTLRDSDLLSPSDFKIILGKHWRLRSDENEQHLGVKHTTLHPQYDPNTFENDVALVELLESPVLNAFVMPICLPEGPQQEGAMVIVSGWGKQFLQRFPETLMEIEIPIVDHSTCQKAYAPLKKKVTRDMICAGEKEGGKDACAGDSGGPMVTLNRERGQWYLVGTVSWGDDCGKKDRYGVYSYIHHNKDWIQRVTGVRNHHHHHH
PROTOCOL_NOTES: cell-based or functional assay
Bridge positions count the residues as written; N and C are the ends. Square brackets hold non-standard residues; d marks the D form. Ends that are not written are not given here. * marks the point of attachment. Benzoyl(3-COOH) = O=C(O)c1cccc(C(=O)*)c1; Oic = O=C(O)[C@@H]1C[C@@H]2CCCC[C@@H]2N1; tBuAla = CC(C)(C)C[C@H](N)C(=O)O; Pen = CC(C)(S)[C@H](N)C(=O)O; dβPro = D-beta-Proline; Sar = CNCC(=O)O
READOUT_TYPE: human MASP1 IC50 (nM)
Kindly answer with a numeric value in nM, unit omitted.

>>> reported_measurement("[dβPro]ICSRS[tBuAla]PPI[Pen]IPD-OH (disulfide 3-11) [(beta-p)-IC+SRS-((tBu)A)-PPI-(Pen)+IPD-OH]")
2.5
>>> reported_measurement("[Sar]ICSRSLP[Oic]I[Pen]IPDK-OH (disulfide 3-11; N-terminus assumed; SMILES CC[C@H](C)[C@H](NC(=O)CNC)C(=O)N[C@H]1CSSC(C)(C)[C@@H](C(=O)N[C@H](C(=O)N2CCC[C@H]2C(=O)N[C@@H](CC(=O)O)C(=O)N[C@@H](CCCCN)C(=O)O)[C@@H](C)CC)NC(=O)[C@H]([C@@H](C)CC)NC(=O)[C@@H]2C[C@@H]3CCCC[C@@H]3N2C(=O)[C@@H]2CCCN2C(=O)[C@H](CC(C)C)NC(=O)[C@H](CO)NC(=O)[C@H](CCCNC(=N)N)NC(=O)[C@H](CO)NC1=O) [((N-Me)G)-IC+SRSLP-(Oic)-I-(Pen)+IPDK-OH]")
3.8

Shift focus to the following entry.
In: I am curious: what human MASP1 IC50 value has been reported for {Benzoyl(3-COOH)}-GICSRSLP[Oic]I[Pen]IPD-OH (disulfide 3-11; SMILES CC[C@H](C)[C@H](NC(=O)CNC(=O)c1cccc(C(=O)O)c1)C(=O)N[C@H]1CSSC(C)(C)[C@@H](C(=O)N[C@H](C(=O)N2CCC[C@H]2C(=O)N[C@@H](CC(=O)O)C(=O)O)[C@@H](C)CC)NC(=O)[C@H]([C@@H](C)CC)NC(=O)[C@@H]2C[C@@H]3CCCC[C@@H]3N2C(=O)[C@@H]2CCCN2C(=O)[C@H](CC(C)C)NC(=O)[C@H](CO)NC(=O)[C@H](CCCNC(=N)N)NC(=O)[C@H](CO)NC1=O) [(3-Carboxybenzoic acid)-GIC+SRSLP-(Oic)-I-(Pen)+IPD-OH] ?
Out: 58
